All figures here come from patent US20160264593A1.

- experiment.summary: Pharmacokinetic study of 100 (and metabolite endothal) in SD rats, iv; plasma, liver, brain
- measurement.setup: female, SD, rat, in vivo, iv, 1 mg/kg, Endothal liver concentration, 100 iv 1.0 mg/kg, SD rats, 24 hr, mean
parameter: concentration at 24 h (ng/g)
One number for each entry, in ng/g.

concentration at 24 h for O=C(O)C1C2CCC(O2)C1C(=O)O (stereo not shown) [Endothal] ?
90.8

---

- experiment.summary: Pharmacokinetic study of 100 (and metabolite endothal) in SD rats, iv; plasma, liver, brain
- measurement.setup: female, SD, rat, in vivo, iv, 0.5 mg/kg, Endothal liver concentration, 100 iv 0.5 mg/kg, SD rats, 1 hr, individual
parameter: concentration at 1 h
Write the figure, then the unit, nothing else.

Query (compound): O=C(O)C1C2CCC(O2)C1C(=O)O (stereo not shown) [Endothal] ; field requested: concentration at 1 h
256 ng/g
